# System Name: UniProt:G1TEI7
# Test Details: PAF receptor binding assay: inhibition of specific [3H]C18-PAF binding to rabbit platelet membranes
# Particulars: 0.6 nM [3H]C18-PAF, 60 min, 22-23 °C, Ki from IC50 (Cheng and Prusoff), read-out: Ki (PAF Receptor Binding Activity)
pKi: −log10 of the molar value. Structures can show the parent of a compound that is named as a salt.
Measured Quantity: pKi

Consider the worked cases shown below.
>  <Compound>
COc1cc(C(=O)c2cccc3c2ccn3C(=O)C2CSC(c3cccnc3)N2)cc(OC)c1OC (stereo not shown)

>  <pKi>
8.40

$$$$
>  <Compound>
O=C(c1cn(S(=O)(=O)c2ccccc2)c2ccccc12)C1CSC(c2cccnc2)S1 (stereo not shown) [Example 32, oxalate]

>  <pKi>
6.00

$$$$
>  <Compound>
O=C(c1cn(C(=O)N2CCOCC2)c2cc(OCc3ccccc3)ccc12)C1CSC(c2cccnc2)N1 (stereo not shown)

>  <pKi>
8.00

$$$$

(A) CN(C(=O)n1cc(C(=O)C2CSC(c3cccnc3)N2)c2ccccc21)c1ccccc1 (stereo not shown)
(B) CN(C)C(=O)n1cc(C(=O)C2CSC(c3cccnc3)N2C(N)=O)c2ccccc21 (stereo not shown)
(C) Cc1[nH]c2cc(OCc3ccccc3)ccc2c1C(=O)C1CSC(c2cccnc2)N1 (stereo not shown)
Input line: # rank by pKi, ascending (min first) Returns: the labels arranged in the requested order.
Output line: B, A, C

====

# System Name: PAF receptor (Oryctolagus cuniculus)
# Sequence (G1TEI7 1-342): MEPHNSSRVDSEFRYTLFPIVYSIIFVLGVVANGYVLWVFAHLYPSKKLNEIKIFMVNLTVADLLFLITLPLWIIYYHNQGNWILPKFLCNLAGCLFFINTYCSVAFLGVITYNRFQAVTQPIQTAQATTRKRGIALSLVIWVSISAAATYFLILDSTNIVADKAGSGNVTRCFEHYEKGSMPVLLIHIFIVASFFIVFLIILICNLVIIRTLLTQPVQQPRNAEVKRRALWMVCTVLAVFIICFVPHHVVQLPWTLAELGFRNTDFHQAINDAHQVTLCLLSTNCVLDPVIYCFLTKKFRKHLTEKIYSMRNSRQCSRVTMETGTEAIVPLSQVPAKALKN
# Test Details: PAF receptor binding assay: inhibition of specific [3H]C18-PAF binding to rabbit platelet membranes
# Particulars: 0.6 nM [3H]C18-PAF, 60 min, 22-23 °C, Ki from IC50 (Cheng and Prusoff), read-out: Ki (PAF Receptor Binding Activity)
Measured Quantity: Ki (nM)

Consider the worked cases shown below.
>  <Compound>
CN(C)C(=O)n1cc(C(=O)C2CSC(c3cccnc3)N2)c2ccc(C#Cc3ccccc3)cc21 (stereo not shown)

>  <Ki / nM>
2

$$$$
>  <Compound>
O=C(c1ccccc1)c1ccc2ccn(C(=O)C3CSC(c4cccnc4)N3)c2c1 (stereo not shown)

>  <Ki / nM>
93

$$$$
>  <Compound>
CC(C)(C)OC(=O)n1cc(C(=O)C2CSC(c3cccnc3)N2C(N)=O)c2ccccc21 (stereo not shown)

>  <Ki / nM>
540

$$$$

(P) CCS(=O)(=O)n1cc(C(=O)C2CSC(c3cccnc3)N2)c2ccccc21 (stereo not shown)
(Q) CN(C)C(=O)n1cc(C(=O)C2CSC(c3cccnc3)N2)c2ccc(Cl)cc21 (stereo not shown)
Input line: Identify the entry with the smaller Ki: P or Q . Your answer should be the label attached to the chosen record.
Output line: Q
(Q: 1 nM, P: 18 nM)

(A) CN(C)C(=O)n1cc(C(=O)[C@@H]2CS[C@@H](c3cccnc3)N2C(=O)C(F)(F)F)c2ccccc21 (relative stereo) [Example 106]
(B) CC(=O)N1C(C(=O)c2cn(C(=O)OC(C)(C)C)c3ccccc23)CSC1c1cccnc1 (stereo not shown)
Input line: Identify the entry with the smaller Ki: A or B . Your answer should be the label attached to the chosen record.
Output line: B
(B: 10 nM, A: 80 nM)

====

# System Name: UniProt G1TEI7
# Test Details: PAF receptor binding assay: inhibition of specific [3H]C18-PAF binding to rabbit platelet membranes
# Particulars: 0.6 nM [3H]C18-PAF, 60 min, 22-23 °C, Ki from IC50 (Cheng and Prusoff), read-out: Ki (PAF Receptor Binding Activity)
Measured Quantity: Ki (nM)

>  <Compound>
CN(C)C(=O)n1cc(C(=O)C2CSC(c3cccnc3)N2)c2ccc(OCc3ccccc3)cc21 (stereo not drawn) [Example 52]

>  <Ki, nM>
1

$$$$
>  <Compound>
CC(C)(C)OC(=O)n1cc(C(=O)C2CSC(c3cccnc3)N2)c2cccc(OCc3ccccc3)c21 (stereo not drawn) [Example 53]

>  <Ki, nM>
1

$$$$
>  <Compound>
CC(C)(C)NC(=O)n1cc(C(=O)C2CSC(c3cccnc3)N2)c2ccccc21 (stereo not drawn) [Example 54]

>  <Ki, nM>
9

$$$$
